Exercise: state measured pIC50 for each of the molecules provided.
# experimental-target: EGFR wildtype, endogenous (Homo sapiens, UniProt P00533)
# Construct: A549 (EGFR wildtype, endogenous)
# Sequence (P00533 25-1210): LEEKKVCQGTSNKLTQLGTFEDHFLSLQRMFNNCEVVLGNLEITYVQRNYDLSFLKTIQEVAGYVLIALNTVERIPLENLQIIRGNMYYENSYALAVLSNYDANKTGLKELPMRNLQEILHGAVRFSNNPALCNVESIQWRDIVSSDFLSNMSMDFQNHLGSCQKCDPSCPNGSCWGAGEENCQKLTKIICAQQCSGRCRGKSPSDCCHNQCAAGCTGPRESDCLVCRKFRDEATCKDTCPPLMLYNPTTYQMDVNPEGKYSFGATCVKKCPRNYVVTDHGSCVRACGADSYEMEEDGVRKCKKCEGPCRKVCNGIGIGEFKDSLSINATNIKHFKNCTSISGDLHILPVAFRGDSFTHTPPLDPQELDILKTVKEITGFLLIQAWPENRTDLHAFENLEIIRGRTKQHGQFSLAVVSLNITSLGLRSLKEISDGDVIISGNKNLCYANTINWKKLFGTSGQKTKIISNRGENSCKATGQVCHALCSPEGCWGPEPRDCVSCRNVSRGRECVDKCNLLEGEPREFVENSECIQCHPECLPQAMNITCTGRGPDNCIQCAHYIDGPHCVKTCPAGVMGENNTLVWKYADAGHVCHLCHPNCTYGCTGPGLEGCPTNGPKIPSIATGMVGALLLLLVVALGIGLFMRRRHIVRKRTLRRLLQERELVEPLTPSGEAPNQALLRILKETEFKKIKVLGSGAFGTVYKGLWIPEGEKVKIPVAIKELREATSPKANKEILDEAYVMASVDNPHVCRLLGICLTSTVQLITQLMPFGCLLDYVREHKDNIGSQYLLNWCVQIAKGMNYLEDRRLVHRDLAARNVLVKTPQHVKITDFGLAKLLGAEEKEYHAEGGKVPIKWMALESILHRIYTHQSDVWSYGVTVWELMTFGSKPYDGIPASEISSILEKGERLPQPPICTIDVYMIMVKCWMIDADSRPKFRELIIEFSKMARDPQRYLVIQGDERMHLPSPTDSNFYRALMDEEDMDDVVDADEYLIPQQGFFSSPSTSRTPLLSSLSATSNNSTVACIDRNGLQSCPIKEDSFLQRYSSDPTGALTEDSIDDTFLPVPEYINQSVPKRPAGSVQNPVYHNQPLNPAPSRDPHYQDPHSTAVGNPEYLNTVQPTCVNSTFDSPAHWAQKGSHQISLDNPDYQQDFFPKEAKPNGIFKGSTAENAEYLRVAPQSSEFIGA
# method-summary: pEGFR Y1068 ELISA assay, A549 cells
# run-parameters: full serum media, stimulated 10 min with EGF (40 ng/mL), read-out: pEGFRY1068 ELISAA549 IC50
API: returns pIC50 as number; meaning -log10 of concentration in mol/L.

Give the measured pIC50 of C=CC(=O)Nc1cccc(Oc2nc(Nc3cnn(C(C)C)c3)nc3[nH]ccc23)c1 [Example 31] .
6.02

Entry C=CC(=O)N1C[C@@H](F)[C@H](Nc2nc(Nc3cnn(C)c3)nc3[nH]cc(Cl)c23)C1 (single isomer, unassigned) [Example 83] : reported pIC50 = ?
6.35

Given the molecule C=CC(=O)Nc1cc(F)cc(Oc2nc(Nc3cnn([C@@H]4CCN(C)C4)c3)nc3[nH]ccc23)c1 [Example 107] , what is its reported pIC50?
5.66

I'd like to know its pIC50. The molecule in question is C=CC(=O)Nc1cccc(Oc2nc(Nc3cnn(C4CCN(C)C4)c3)nc3[nH]ccc23)c1 (stereo not drawn) [Example 34]
5.39

For the molecule C=CC(=O)Nc1cccc(Oc2nc(Nc3cn(C)nc3C)nc3[nH]ccc23)c1 [Example 30] , what pIC50 is on record?
5.62

Request the reported pIC50 associated with C=CC(=O)N1C[C@@H](COc2nc(Nc3cnn(C)c3)nc3[nH]ccc23)[C@H](C)C1 (single isomer, unassigned) [Example 3]
5.04

---

# experimental-target: EGFR Del (PC9) (Homo sapiens, UniProt P00533, DEL746-750)
# Construct: endogenous in cells
# Sequence (P00533 with tags, fused parts or gaps DEL746-750): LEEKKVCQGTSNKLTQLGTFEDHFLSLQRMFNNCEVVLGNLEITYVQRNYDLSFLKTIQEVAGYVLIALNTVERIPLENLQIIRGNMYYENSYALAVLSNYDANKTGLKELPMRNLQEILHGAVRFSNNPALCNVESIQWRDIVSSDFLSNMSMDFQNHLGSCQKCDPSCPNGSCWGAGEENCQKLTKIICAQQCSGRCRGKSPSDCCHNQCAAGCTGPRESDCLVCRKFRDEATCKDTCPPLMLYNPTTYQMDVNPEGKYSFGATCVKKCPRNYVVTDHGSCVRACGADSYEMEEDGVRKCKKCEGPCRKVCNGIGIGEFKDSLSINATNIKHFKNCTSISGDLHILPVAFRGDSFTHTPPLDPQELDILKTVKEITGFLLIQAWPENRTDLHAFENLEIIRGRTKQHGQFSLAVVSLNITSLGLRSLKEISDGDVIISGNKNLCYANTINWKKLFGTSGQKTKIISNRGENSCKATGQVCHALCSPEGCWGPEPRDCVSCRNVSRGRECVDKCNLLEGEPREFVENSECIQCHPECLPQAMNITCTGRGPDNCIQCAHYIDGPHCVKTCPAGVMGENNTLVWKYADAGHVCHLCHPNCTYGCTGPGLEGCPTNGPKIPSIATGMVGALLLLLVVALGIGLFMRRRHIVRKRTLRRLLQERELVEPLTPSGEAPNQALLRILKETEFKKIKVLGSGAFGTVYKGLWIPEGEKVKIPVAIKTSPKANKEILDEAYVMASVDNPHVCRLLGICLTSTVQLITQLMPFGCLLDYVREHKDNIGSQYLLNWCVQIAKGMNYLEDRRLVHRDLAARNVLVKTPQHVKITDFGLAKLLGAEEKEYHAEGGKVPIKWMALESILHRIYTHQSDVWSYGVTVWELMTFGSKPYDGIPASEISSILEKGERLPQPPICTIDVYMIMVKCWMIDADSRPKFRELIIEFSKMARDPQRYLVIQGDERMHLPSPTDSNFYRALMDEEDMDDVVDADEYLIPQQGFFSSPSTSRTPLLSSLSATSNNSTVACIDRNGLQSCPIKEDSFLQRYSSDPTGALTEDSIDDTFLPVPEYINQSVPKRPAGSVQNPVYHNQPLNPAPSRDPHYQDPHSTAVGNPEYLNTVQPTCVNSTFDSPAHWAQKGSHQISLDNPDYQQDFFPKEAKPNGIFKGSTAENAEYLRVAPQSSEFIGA
# method-summary: EGFR ELISA, PC9 Del cells;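 also: cellular EGFR autophosphorylation at Tyr1068 quantified by sandwich ELISA of cell lysates after 2 h compound exposure at 37 °C, 11-point threefold dilution series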
# run-parameters: read-out: EGFR_ELISA9E PC9 Del IC50
Hi! Just check whether IC50 is below 600 nM. Below gives 1.0, equal or above gives 0.0.

Find out if reported IC50 for C=CC(=O)N(C)[C@H]1C[C@H](Oc2nc(Nc3cn(C)nc3C#N)nc3[nH]cc(Cl)c23)C1 is less than 600 nM
0.0

For this compound, is IC50 lower than 600 nM? C=CC(=O)N1CC(Nc2nc(Nc3cnn(C)c3)nc3[nH]cc(Cl)c23)C1
0.0

Input C=CC(=O)Nc1cccc(Oc2nc(Nc3cnn(C)c3)nc3[nH]cc(-c4cccnc4)c23)c1 ; condition: IC50 strictly below 600 nM. Does it hold?
1.0

Please check: IC50 for C=CC(=O)N[C@H]1C[C@@H](Oc2nc(Nc3cnn(C)c3)nc3[nH]cc(-c4cccnc4)c23)C1 , strictly under 600 nM or not?
1.0

I wonder whether C=CC(=O)N[C@]1(C)C[C@H](Oc2nc(Nc3cnn(C)c3)nc3[nH]cc(Cl)c23)C1 has IC50 below 600 nM. Can you tell?
0.0

Criterion: IC50 strictly below 600 nM. Is it met by C=CC(=O)N1C[C@@H]2CN(c3nc(Nc4cnn(C)c4)nc4[nH]cc(Cl)c34)C[C@]2(OC)C1 (single isomer, unassigned) ?
0.0

---

Could you please report measured pIC50 for the items listed next?
# experimental-target: EGFR wildtype, endogenous (Homo sapiens, UniProt P00533)
# Construct: A549 (EGFR wildtype, endogenous); host or cells: A549
# method-summary: pEGFR Y1068 ELISA assay, A549 cells;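 also: sandwich ELISA of phospho-EGFR Tyr1068 in cell lysates, cells exposed to compound for 2 h before EGF stimulation, 11-point threefold dilution series run in duplicate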
# Format: cell-based
# run-parameters: full serum media, stimulated 10 min with EGF (40 ng/mL), read-out: pEGFRY1068 ELISAA549 IC50
pIC50: −log10 of the molar value.

Can you look up pIC50 on EGFR wildtype, endogenous (Homo sapiens, UniProt P00533) for C=CC(=O)Nc1cccc(Oc2nc(Nc3cnn(C4CCOC4)c3)nc3[nH]ccc23)c1 (stereo not drawn) ?
5.55

Quick check: pIC50 on EGFR wildtype, endogenous (Homo sapiens, UniProt P00533), item C=CC(=O)Nc1cccc(Oc2nc(Nc3cnn(C4CCN(C)C4)c3)nc3[nH]cnc23)c1 (stereo not drawn) ?
< 5.00

API: value(readout=pIC50, system=EGFR wildtype, endogenous (Homo sapiens, UniProt P00533)) for record C=CC(=O)N1C[C@H](COc2nc(Nc3cnn(CC(C)O)c3)nc3[nH]cc(Cl)c23)[C@@H](OC)C1 (single isomer, unassigned)
< 5.00
